Kindly state Mean Specific Binding (dpm) ± S.E.M., NET for each of the entries shown.
system-under-test: Norepinephrine Transporter (NET) Sites in Mouse Brain (Mus musculus, UniProt O55192)
Sequence (O55192 whole entry): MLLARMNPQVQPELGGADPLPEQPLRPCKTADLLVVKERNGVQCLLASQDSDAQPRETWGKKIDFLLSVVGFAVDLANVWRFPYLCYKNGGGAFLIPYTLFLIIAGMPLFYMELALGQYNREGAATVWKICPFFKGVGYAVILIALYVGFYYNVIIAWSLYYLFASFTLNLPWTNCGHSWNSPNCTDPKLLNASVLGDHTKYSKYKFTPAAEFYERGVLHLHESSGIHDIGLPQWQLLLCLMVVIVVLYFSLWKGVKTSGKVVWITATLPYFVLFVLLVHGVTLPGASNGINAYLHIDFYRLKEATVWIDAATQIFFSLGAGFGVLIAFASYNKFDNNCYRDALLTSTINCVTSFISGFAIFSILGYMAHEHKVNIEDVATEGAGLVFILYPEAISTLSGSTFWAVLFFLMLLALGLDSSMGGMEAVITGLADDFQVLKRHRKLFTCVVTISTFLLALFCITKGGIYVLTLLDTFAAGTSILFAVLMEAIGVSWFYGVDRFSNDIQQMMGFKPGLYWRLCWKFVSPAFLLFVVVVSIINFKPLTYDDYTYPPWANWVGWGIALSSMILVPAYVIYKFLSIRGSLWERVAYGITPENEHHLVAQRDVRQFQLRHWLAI
conditions: 30 mg/kg, PO; mice sacrificed 60 minutes after treatment; cortex

CC(N(C)C)C1(c2ccc3ccccc3c2)CCCCC1 (single isomer, unassigned) [56 E1] ... 19 ± 2 dpm
CNC(C)C1(c2ccc(Cl)c(Cl)c2)CCCCC1.Cl (single isomer, unassigned) [48 E1, hydrochloride] ... 346 ± 55 dpm
CNCC1(c2ccc(Cl)c(Cl)c2)CCC(C)(O)CC1 (centres unmarked) ... 1138 ± 59 dpm
CN(C)C[C@]1(c2ccc3ccccc3c2)CC[C@](C)(O)CC1 ... 230 ± 33 dpm

Below: the item to evaluate.
Find the recorded Mean Specific Binding (dpm) ± S.E.M., NET belonging to CN(C)CC1(c2ccc(Cl)c(Cl)c2)CCC(C)(O)CC1 (centres unmarked) and report it.
294 ± 42 dpm
